Item-by-item account of melting point

Molecule: CCN(c1cc(C)c(C)c2cc(-c3ncc(CO)s3)[nH]c12)S(=O)(=O)c1cccs1
melting point: 189 to 190 °C

Molecule: Cc1ccc(N(C)S(=O)(=O)c2cccs2)c2[nH]c(-c3nccs3)cc12
melting point: 159 to 160 °C

Molecule: CCN(c1ccc(C)c2cc(-c3ncc(CO)s3)[nH]c12)S(=O)(=O)c1cccs1
melting point: 166 to 167 °C

Molecule: Cc1nc(-c2cc3cccc(N(C)S(=O)(=O)c4cccs4)c3[nH]2)cs1
melting point: 161 to 162 °C

Molecule: CCOC(=O)c1cc2c(C)ccc(N(CC)S(=O)(=O)c3cccs3)c2[nH]1
melting point: 148 to 149 °C

Molecule: CCN(c1ccc(C)c2cc(-c3ncc(C(C)O)s3)[nH]c12)S(=O)(=O)c1cccs1 (stereo not drawn)
melting point: 152 to 153 °C

Molecule: CNc1nc(-c2cc3cccc(N(C)S(=O)(=O)c4cccs4)c3[nH]2)cs1
melting point: 162 to 163 °C

Molecule: CCOC(=O)c1cc2c(C)c(C)cc(N(CC)S(=O)(=O)c3cccs3)c2[nH]1
melting point: 134 to 135 °C

Molecule: CN(c1cc(OC(F)(F)F)cc2cc(C(=O)O)[nH]c12)S(=O)(=O)c1cccs1
melting point: 245 to 246 °C

Molecule: Cc1ccc(N(C)S(=O)(=O)c2cccs2)c2[nH]c(-c3ncc(CO)s3)cc12
melting point: 184 to 185 °C

Molecule: Cc1ccc(N(C)S(=O)(=O)c2cccs2)c2[nH]c(C(=O)O)cc12
melting point: 223 to 225 °C

Molecule: CN(c1ccc(F)c2cc(-c3nccs3)[nH]c12)S(=O)(=O)c1cccs1
melting point: 197 to 198 °C

====

Molecular target: GST-hLGK1 (human liver type GK) (Homo sapiens)
Construct: with a BamHI site added to immediately before the initiation codon
Sequence (P35557 1-464 isoform P35557-3): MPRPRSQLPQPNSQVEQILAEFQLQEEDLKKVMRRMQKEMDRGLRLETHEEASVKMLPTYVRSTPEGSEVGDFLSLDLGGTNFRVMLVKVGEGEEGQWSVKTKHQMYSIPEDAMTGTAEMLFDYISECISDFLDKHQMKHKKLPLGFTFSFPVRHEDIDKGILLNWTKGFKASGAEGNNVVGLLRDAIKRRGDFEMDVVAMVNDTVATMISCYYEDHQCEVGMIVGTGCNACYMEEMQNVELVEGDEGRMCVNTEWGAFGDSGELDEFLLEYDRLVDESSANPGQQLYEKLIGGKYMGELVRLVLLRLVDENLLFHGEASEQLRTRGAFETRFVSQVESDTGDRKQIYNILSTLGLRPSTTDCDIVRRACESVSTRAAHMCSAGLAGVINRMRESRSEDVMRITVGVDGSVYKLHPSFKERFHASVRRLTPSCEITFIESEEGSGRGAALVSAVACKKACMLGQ
Assay: Determination of GK activity value (Mant-ATP conversion, capillary electrophoresis)
Conditions: concentration necessary for activating 50% of the maximum GK activity value, 37° C., 60 min, D-glucose added

Compound Structure String: O=C1CCCc2c1[nH]c1c(NS(=O)(=O)c3cccs3)cccc21
Value Units: nM
EC50: 1400
--
Compound Structure String: O=S(=O)(Nc1cccc2cc(C3=NCCO3)[nH]c12)c1cccs1
Value Units: nM
EC50: 1200
--
Compound Structure String: O=S(=O)(Nc1cccc2cc(-c3ccccn3)[nH]c12)c1cccs1
Value Units: nM
EC50: 1500

These entries and their values trace back to patent US8957070B2.
